molecular target: Luciferin 4-monooxygenase (Photinus pyralis); experiment: inhibition of purified Photinus pyralis luciferase – biochemical, luminescence, purified enzyme, 2006 set, primary screen (AID 1141); details: purified firefly luciferase, SteadyGlo luminescence, 30 min; higher = more signal, called active from +8 up or from −8 down;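 further: cell-free assay with purified firefly luciferase at 100 ng per well in PBS; test concentration not given here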
MEASURE: z-score
Note: the reply should be a number with no unit written.

O=C1OCC=C[C@H]2OC34C=CCN(Cc5ccccc5)C(=O)[C@H]3N(CCCO)C(=O)[C@@H]4[C@@H]12 (stereo not given in full); -0.241
CC1(C)C(=O)C(c2ccccc2)=C2CN3C(=O)N(CCc4ccccc4)C(=O)C3(Cc3ccccc3)C=C21 (stereo not given); 0.245
Cc1ccc(N2C(=O)c3ccccc3[C@](C)(C(=O)NCCN3CCOCC3)[C@@H]2c2ccc(CO)cc2)nc1; 0.952

-- ask Missing value: z-score, Luciferin 4-monooxygenase (Photinus pyralis), entry C=CCC(OC(C)=O)[C@@H]1[C@@H](N(Cc2ccc(-c3ccccc3)cc2)C(=O)c2ccc(C)cc2)c2cc(OCCCO)ccc2N1C(=O)c1ccc2ccccc2n1 (stereo not given in full) . Fill in?
-- reply -1.9

-- ask Entry CCCC[C@H]1OB(O)C[C@H]2C1=C(COc1ccccc1)C[C@H]1C(=O)N(Cc3ccccc3)C(=O)[C@H]12 please
-- reply 0.258

-- ask Entry COc1ccc([Si](C)(C)[C@H]2[C@H](CC(=O)N3Cc4ccccc4C[C@H]3CO)O[C@@]3(C(=O)N(Cc4cccc(I)c4)c4ccccc43)[C@@H]2C)cc1 please
-- reply -0.63

-- ask Entry C=CC[C@@]1(C(=O)OC)N=C(c2ccc(OCCCO)cc2)O[C@@H]1c1ccccc1CN=[N+]=[N-] please
-- reply 0.668

-- ask Entry Cc1ccccc1/C=C/C=O please
-- reply 0.702

-- ask Entry O=C(NCc1ccccc1)[C@@H]1c2ccccc2C(=O)N(Cc2cc(F)cc(C(F)(F)F)c2)[C@H]1c1ccc(CO)cc1 please
-- reply -1.13

-- ask Entry C=CCCN(CC#C[C@H]1Oc2ccccc2S(=O)(=O)N2CCC[C@@H]12)S(=O)(=O)c1ccc(C)cc1 please
-- reply -0.291

-- ask Entry CC(C)C(CO)N1C(=O)[C@@H]2[C@H]3C(=O)OCC=C[C@H]3OC23C=CCN(c2ccc4ccccc4c2)C(=O)[C@@H]13 (stereo not given in full) please
-- reply -0.194

-- ask Entry COC(=O)[C@@]1(Cc2ccc(F)cc2)[C@H]2c3cc(C(=O)N(C)C)n(Cc4ccccn4)c3C[C@H]2CN1C(=O)c1ccccc1 please
-- reply 3

-- ask Entry CN1C(=O)C2C=CC(C(O)c3ccc(Br)cc3)N(Nc3ccccc3)C2C1=O (stereo not given) please
-- reply -1.11

-- ask Entry O=C1OCC=C[C@H]2OC34C=CCN(c5ccc(Cl)cc5)C(=O)[C@H]3N(CCCO)C(=O)[C@@H]4[C@@H]12 (stereo not given in full) please
-- reply -0.429

-- ask Entry CCCCN1CC=CC23O[C@@H]4C=CCCOC(=O)C4[C@H]2C(=O)N(CCCO)[C@@H]3C1=O (stereo not given in full) please
-- reply -0.11

-- ask Entry C=CCN1C(=O)[C@]2(Cc3ccccc31)N=C(c1ccc(OCCCO)cc1)O[C@@H]2c1ccccc1 please
-- reply -1.39

-- ask Entry O=C(NCC(O)CO)[C@@]1(Cc2ccccc2)COC(c2ccc(OCCCO)cc2)=N1 (stereo not given in full) please
-- reply 0.37

-- ask Entry C=CCC(OC(C)=O)[C@@H]1[C@@H](N(Cc2cc3ccccc3o2)C(=O)c2ccc(C)cc2)c2cc(OCCCO)ccc2N1C(=O)c1ccc(-c2ccccc2)cc1 (stereo not given in full) please
-- reply 0.352

---

assay: viability profiling in MM1S myeloma cells – cell-based, resazurin fluorescence, basal, 24 h, PK04 Diversity Set, profiling panel (AID 1174); settings: higher = more signal, called active from +8 up or from −8 down;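 further: MM1S multiple myeloma cell line; test concentration not given here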
We begin with a simple list: items and their reported z-score.
Note: the reply should be a number with no unit written.

CC(=O)NCCCC[C@@H]1NC(=O)[C@@H]2C[C@H](C(=O)NCc3ccc(F)cc3)[C@H](c3ccc(O)cc3)N2C1=O; -0.276

-- ask Which z-score value belongs to C=CC[C@@]1(C(N)=O)N=C(c2ccc(OCCCO)cc2)O[C@@H]1c1ccccc1N=[N+]=[N-] ?
-- reply 0.694

-- ask Entry CCOC(=O)C=Cc1cccc(OC)c1O please
-- reply -0.649

-- ask Entry COCCOC(=O)N1C(=O)[C@@]2(c3cc(C#CC4=CCCCC4)ccc31)[C@H](c1ccc(OCCO)cc1)N1[C@H](c3ccccc3)[C@H](c3ccccc3)OC(=O)[C@H]1[C@@H]2C(=O)Nc1nc2ccccc2s1 please
-- reply -0.396

---

test: probe aXIP binding to arrayed compounds – biochemical, NeuroSMM set, 635/667 nm fluorescence, primary screen (AID 1119); conditions: small-molecule microarray, higher = more signal, called active from +8 up or from −8 down;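 further: probe is the protein aXip251-270 applied at 1 µg/mL to compound-printed slides; binding of probe to printed compounds measured as 667 nm fluorescence plus signal to noise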
Hi, to clarify the labels: Yes covers composite Z-score from 1 upward, No covers anything below 1.

-- ask Has C=CCOC(=O)[C@@H]1[C@H]2C(=O)O[C@H](c3ccccc3)[C@H](c3ccccc3)N2[C@H](c2ccc(OCCOC(=O)[C@H]3C[C@H]4C(=O)N[C@@H](Cc5ccccc5)C(=O)N4[C@H]3c3ccc(O)cc3)cc2)[C@@]12C(=O)Nc1ccc(I)cc12 a recorded composite Z-score greater than or equal to 1?
-- reply Yes

-- ask Entry CO[C@H]1O[C@H](CO)[C@@H](OC(=O)Nc2ccc3c(c2)OCO3)[C@H](OC(=O)Nc2ccc3c(c2)OCO3)[C@H]1OC(=O)Nc1ccc2c(c1)OCO2 please
-- reply No

-- ask Entry O=C1O[C@H](c2ccccc2)[C@H](c2ccccc2)N2[C@H]1[C@@H](C(=O)NC[C@H](O)c1ccccc1)[C@]1(C(=O)Nc3ccc(C#CC4=CCCCC4)cc31)[C@H]2c1ccc(O)cc1 please
-- reply No

-- ask Entry CN1C(=O)C2C=CC(C(O)c3ccccc3)N(NC(=O)OC(C)(C)C)C2C1=O (stereo unspecified) please
-- reply No

-- ask Entry O=C1C2C=CC(C(O)c3ccc(B(O)O)cc3)N(Nc3ccc([N+](=O)[O-])cc3)C2C(=O)N1c1ccccc1 (stereo unspecified) please
-- reply No

-- ask Entry CN1C(=O)C2C=CC(C(O)C3=C[C@H]4C[C@@H](C3)C4(C)C)N(Nc3ccc([N+](=O)[O-])cc3[N+](=O)[O-])C2C1=O (stereo partly specified) please
-- reply Yes

---

target: NADPH oxidase 5 (Homo sapiens); assay: compounds shifting NOX5 Amplex Red fluorescence – cell-based, HEK293-NOX5, NOX inhibitor project, primary screen (AID 1161); conditions: HEK293-NOX5, ionomycin, 45 min, higher = more signal
We begin with a simple list: items and their reported z-score.
Note: the reply should be a number with no unit written.

Consider the reported z-score for these compounds:
O=C1OCCC/C=C\[C@H]2OC34C=CCN(CCN5CCOCC5)C(=O)[C@H]3N(CCO)C(=O)[C@@H]4C12 (stereo not given in full); 0.494
Cc1ccc(S[C@]2(C(=O)NCc3ccccc3)CC(=O)N(Cc3cc(C(F)(F)F)cc(C(F)(F)F)c3)[C@@H]2c2ccc(CO)cc2)cc1; 0.832
CC(C)NC(=O)[C@@]1(c2ccc([N+](=O)[O-])cc2)CC(=O)N(C(C)C)[C@@H]1c1ccc(CO)cc1; 0.0654
NC(=O)NCC#Cc1ccc2c(c1)[C@]1(C(=O)N2)[C@H](c2ccc(O)cc2)N2[C@H](c3ccccc3)[C@H](c3ccccc3)OC(=O)[C@H]2[C@@H]1C(=O)N1CCN(c2ncccn2)CC1; 1.68
CN1C(=O)C2C=CC(C(O)C3=C[C@H]4C[C@@H](C3)C4(C)C)N(Nc3ccc([N+](=O)[O-])cc3[N+](=O)[O-])C2C1=O (stereo not given in full); -1.2
C=CCCN(CC#C[C@H]1Oc2ccccc2S(=O)(=O)N2CCC[C@@H]12)S(=O)(=O)c1ccc(C)cc1; -0.909

-- ask Which z-score value belongs to CCCC[C@H]1OB(O)C[C@H]2C1=C(C)Cn1c(=O)n(-c3ccccc3)c(=O)n12 ?
-- reply -0.278

---

experiment: inhibition of PAO1 biofilm formation – strain PAO1, LB-PBS medium, absorbance 600 nm, primary screen (AID 1176); further: test concentration not given here; conditions: P. aeruginosa PAO1 growth/biofilm, A600, 12 h; higher = more signal
We begin with a simple list: items and their reported z-score.
Note: the reply should be a number with no unit written.

Consider the reported z-score for these molecules:
CCN(CC)c1ccc(N2CC=CC34O[C@@H]5/C=C\CCC(C)OC(=O)C5[C@H]3C(=O)N(CCCCCCO)[C@@H]4C2=O)cc1 (stereo partly specified); -0.497
C=CCN1C(=O)[C@]2(Cc3ccccc31)N=C(c1ccc(OCCCO)cc1)O[C@@H]2c1ccccc1; 0.134
C=CCOC(=O)[C@H]1[C@@H]2C(=O)O[C@@H](c3ccccc3)[C@@H](c3ccccc3)N2[C@@H](c2ccc(OCCOC(=O)[C@@H]3C[C@@H]4C(=O)NCC(=O)N4[C@@H]3c3ccc(O)cc3)cc2)[C@]12C(=O)Nc1ccc(I)cc12; 2.27
CC(C)[C@H]1COC(=O)N1C(=O)[C@H]1[C@@H](c2ccccc2)N(c2ccccc2)O[C@@H]1C; 0.0694
O=C(NCC(O)CO)[C@@]1(Cc2ccccc2)N=C(c2ccc(OCCCO)cc2)O[C@H]1c1ccccc1 (stereo partly specified); 0.41
C=C(CCCC)C(=O)CC[C@@H](OC(=O)c1ccccc1-c1ccccc1C(=O)O)c1ccc(CO)o1; 1.32

Query molecule follows.
-- ask Which z-score value belongs to [N-]=[N+]=Nc1ccccc1[C@@H]1OC(c2ccc(OCCCO)cc2)=N[C@]1(CCS(=O)(=O)c1ccccc1)C(=O)O ?
-- reply -0.884
